# TEST_DESCRIPTION: Cellular toxicity in the HIV cell-line (MT-4)
# Type: cell-based, human
# MEASUREMENT_CONTEXT: human
Reported CC50 by item:

{"COMPOUND": "CC(C)OC(=O)[C@H](C)NP(=O)(OC[C@H]1O[C@@H](n2ccc(=O)[nH]c2=O)C2(CC2)[C@@H]1O)Oc1ccccc1 (stereo partly shown)", "CC50": "> 98 µM"}
{"COMPOUND": "CCCCOC(=O)[C@H](C)NP(=O)(OC[C@H]1O[C@@H](n2ccc(=O)[nH]c2=O)C2(CC2)[C@@H]1O)Oc1ccccc1 (stereo partly shown)", "CC50": "> 98 µM"}
{"COMPOUND": "C[C@H](NP(=O)(OC[C@H]1O[C@@H](n2ccc(=O)[nH]c2=O)C2(CC2)[C@@H]1O)Oc1ccccc1)C(=O)OC(C)(C)C (stereo partly shown)", "CC50": "> 98 µM"}
{"COMPOUND": "CCCCCCCCOC(=O)[C@H](C)NP(=O)(OC[C@H]1O[C@@H](n2ccc(=O)[nH]c2=O)C2(CC2)[C@@H]1O)Oc1ccc(Cl)cc1 (stereo partly shown)", "CC50": "> 30 µM"}
{"COMPOUND": "Cc1ccc(C(C)C)cc1OP(=O)(N[C@@H](C)C(=O)OCc1ccccc1)OC[C@H]1O[C@@H](n2ccc(=O)[nH]c2=O)C2(CC2)[C@@H]1O (stereo partly shown)", "CC50": "23 µM"}
{"COMPOUND": "C[C@H](NP(=O)(OC[C@H]1O[C@@H](n2ccc(=O)[nH]c2=O)C2(CC2)[C@@H]1O)Oc1ccccc1)C(=O)OCC(C)(C)C (stereo partly shown)", "CC50": "> 98 µM"}
{"COMPOUND": "CC(C)OC(=O)C(C)(C)NP(=O)(OC[C@H]1O[C@@H](n2ccc(=O)[nH]c2=O)C2(CC2)[C@@H]1O)Oc1ccccc1 (stereo partly shown)", "CC50": "> 98 µM"}
{"COMPOUND": "C[C@H](NP(=O)(OC[C@H]1O[C@@H](n2ccc(=O)[nH]c2=O)C2(CC2)[C@@H]1O)Oc1ccc(Cl)cc1)C(=O)OCc1ccccc1 (single isomer, unassigned) [Compound 7a]", "CC50": "> 50 µM"}
{"COMPOUND": "CCOC(=O)[C@H](Cc1ccccc1)NP(=O)(OC[C@H]1O[C@@H](n2ccc(=O)[nH]c2=O)C2(CC2)[C@@H]1O)Oc1ccccc1 (stereo partly shown)", "CC50": "> 98 µM"}
{"COMPOUND": "CCOC(=O)C1(NP(=O)(OC[C@H]2O[C@@H](n3ccc(=O)[nH]c3=O)C3(CC3)[C@@H]2O)Oc2ccccc2)CC1 (stereo partly shown)", "CC50": "> 98 µM"}
{"COMPOUND": "C[C@H](NP(=O)(OC[C@H]1O[C@@H](n2ccc(=O)[nH]c2=O)C2(CC2)[C@@H]1O)Oc1cccc2ccccc12)C(=O)OCc1ccccc1 (stereo partly shown)", "CC50": "> 32 µM"}
{"COMPOUND": "C[C@H](NP(=O)(OC[C@H]1O[C@@H](n2ccc(=O)[nH]c2=O)C2(CC2)[C@@H]1O)Oc1ccc2[nH]ccc2c1)C(=O)OCc1ccccc1 (stereo partly shown)", "CC50": "> 98 µM"}
{"COMPOUND": "Cc1ccc(C(C)C)c(OP(=O)(N[C@@H](C)C(=O)OCc2ccccc2)OC[C@H]2O[C@@H](n3ccc(=O)[nH]c3=O)C3(CC3)[C@@H]2O)c1 (stereo partly shown)", "CC50": "2.1 µM"}
